# Test system: HIV-1 (H9/IIIB strain)
# Assay overview: Multiple round HIV-1 infection assay (Viking assay) in MT4-GFP cells
# Type: cell-based
# Measurement setup: Table 1; MT4-GFP cells infected with HIV-1 H9/IIIB, 50% normal human serum; read-out: Viking, IC50 (50% NHS)
Note to self: IC50 under 50 nM means MET, ties and anything higher get NOT MET.

Answered cases to consult:
INSERT INTO results (compound, assayed_target, class_assignment) VALUES
  ('CCCOC(=O)C(C)(C)NP(=O)(CO[C@H](C)Cn1cnc2c(N)ncnc21)OCCC(=O)OC(C)C (single isomer, unassigned) [Example 1B]', 'HIV-1 (H9/IIIB strain)', 'MET'),
  ('CC(C)OC(=O)C1(COP(=O)(CO[C@H](C)Cn2cnc3c(N)ncnc32)NC(C)(C)C(=O)OC(C)C)CC1 (single isomer, unassigned) [Example 3A]', 'HIV-1 (H9/IIIB strain)', 'NOT MET'),
  ('CCCOC(=O)C(C)(C)NP(=O)(CO[C@H](C)Cn1cnc2c(N)ncnc21)OCC[C@H](C)C(=O)OC(C)C (single isomer, unassigned) [Example 6A]', 'HIV-1 (H9/IIIB strain)', 'MET'),
  ('CCCOC(=O)C(C)(C)NP(=O)(CO[C@H](C)Cn1cnc2c(N)ncnc21)OCCc1cccc(C(=O)OC(C)C)c1 (single isomer, unassigned) [Example 11A]', 'HIV-1 (H9/IIIB strain)', 'MET'),
  ('CC(C)OC(=O)C1(COP(=O)(CO[C@H](C)Cn2cnc3c(N)ncnc32)NC(C)(C)C(=O)OC(C)C)CC1 (single isomer, unassigned) [Example 3B]', 'HIV-1 (H9/IIIB strain)', 'NOT MET');

Ask: Does the reported IC50 of the following compound sit strictly below 50 nM? CCCSC(=O)C(C)(C)NP(=O)(CO[C@H](C)Cn1cnc2c(N)ncnc21)OCCC(=O)OC(C)C (single isomer, unassigned) [Example 13B]
Reply: NOT MET

Ask: Does the reported IC50 of the following compound sit strictly below 50 nM? CC(C)OC(=O)C[C@H](C)OP(=O)(CO[C@H](C)Cn1cnc2c(N)ncnc21)NC(C)(C)C(=O)OC(C)C (single isomer, unassigned) [Example 10B]
Reply: NOT MET

Ask: Does the reported IC50 of the following compound sit strictly below 50 nM? CC(C)OC(=O)[C@@H](C)CCOP(=O)(CO[C@H](C)Cn1cnc2c(N)ncnc21)NC(C)(C)C(=O)OC(C)C (single isomer, unassigned) [Example 5A]
Reply: MET

Ask: Does the reported IC50 of the following compound sit strictly below 50 nM? CCCCCOC(=O)C(C)(C)NP(=O)(CO[C@H](C)Cn1cnc2c(N)ncnc21)OCCC(=O)OC(C)C (single isomer, unassigned) [Example 8A]
Reply: MET

Ask: Does the reported IC50 of the following compound sit strictly below 50 nM? CC(C)OC(=O)CCOP(=O)(CO[C@H](C)Cn1cnc2c(N)ncnc21)NC(C)(C)C(=O)OC(C)C (single isomer, unassigned) [Example 2A]
Reply: NOT MET

###

Please respond with reported IC50 for every item in the list.
# Tested on: HIV-1 (H9/IIIB strain)
# Assay overview: Multiple round HIV-1 infection assay (Viking assay) in MT4-GFP cells
# Type: cell-based
# Measurement setup: Table 1; MT4-GFP cells infected with HIV-1 H9/IIIB, 10% normal human serum; read-out: Viking, IC50 (10% NHS)
Write the figure, then the unit, nothing else.

The cases that follow already have their IC50 on record.
INSERT INTO measurements (compound, assayed_target, experimental_readout, recorded_value) VALUES
  ('CC(C)OC(=O)C[C@H](C)OP(=O)(CO[C@H](C)Cn1cnc2c(N)ncnc21)NC(C)(C)C(=O)OC(C)C (single isomer, unassigned) [Example 10A]', 'HIV-1 (H9/IIIB strain)', 'IC50', '11.4 nM'),
  ('CC(C)OC(=O)C(C)(C)COP(=O)(CO[C@H](C)Cn1cnc2c(N)ncnc21)NC(C)(C)C(=O)OC(C)C (single isomer, unassigned) [Example 9B]', 'HIV-1 (H9/IIIB strain)', 'IC50', '8.34 nM'),
  ('CC(C)OC(=O)[C@@H](C)CCOP(=O)(CO[C@H](C)Cn1cnc2c(N)ncnc21)NC(C)(C)C(=O)OC(C)C (single isomer, unassigned) [Example 5A]', 'HIV-1 (H9/IIIB strain)', 'IC50', '7.52 nM'),
  ('CCCCCOC(=O)C(C)(C)NP(=O)(CO[C@H](C)Cn1cnc2c(N)ncnc21)OCCC(=O)OC(C)C (single isomer, unassigned) [Example 8A]', 'HIV-1 (H9/IIIB strain)', 'IC50', '0.92 nM'),
  ('CCCCCOC(=O)C(C)(C)NP(=O)(CO[C@H](C)Cn1cnc2c(N)ncnc21)OCCC(=O)OC(C)C (single isomer, unassigned) [Example 8B]', 'HIV-1 (H9/IIIB strain)', 'IC50', '7.59 nM');

// for each compound below, give its IC50
1. CCCOC(=O)C(C)(C)NP(=O)(CO[C@H](C)Cn1cnc2c(N)ncnc21)OCc1cccc(C(=O)OC(C)C)c1 (single isomer, unassigned) [Example 14A]
2. CCCOC(=O)C(C)(C)NP(=O)(CO[C@H](C)Cn1cnc2c(N)ncnc21)OCc1cccc(C(=O)OC(C)C)c1 (single isomer, unassigned) [Example 14B]
3. CC(C)OC(=O)C1(COP(=O)(CO[C@H](C)Cn2cnc3c(N)ncnc32)NC(C)(C)C(=O)OC(C)C)CC1 (single isomer, unassigned) [Example 3A]
4. CC(C)OC(=O)[C@@H](C)CCOP(=O)(CO[C@H](C)Cn1cnc2c(N)ncnc21)NC(C)(C)C(=O)OC(C)C (single isomer, unassigned) [Example 5B]
5. CCCOC(=O)C(C)(C)NP(=O)(CO[C@H](C)Cn1cnc2c(N)ncnc21)OCC[C@H](C)C(=O)OC(C)C (single isomer, unassigned) [Example 6A]
6. CC(C)OC(=O)CCOP(=O)(CO[C@H](C)Cn1cnc2c(N)ncnc21)NC(C)(C)C(=O)OC(C)C (single isomer, unassigned) [Example 2A]

Reply:
1: 1.71 nM; 2: 16.7 nM; 3: 88.7 nM; 4: 540 nM; 5: 5.54 nM; 6: 22.4 nM
